test system: HT29; experiment: MTT cytotoxicity, HT29; format: cell-based, human; details: 48 h incubation, read-out: Cytotoxic effect, IC50
pIC50 by entry:
Remember the convention: pIC50 equals -log10 of concentration in molar.

Please review the entries below; each comes with its answer.
INSERT INTO assay_data (compound, test_value) VALUES
  ('CCc1cc(CC)n(C(N)=S)n1.Cc1ccc(C(C)C)cc1.[Cl-].[Cl][Ru+] [2b]', 3.97),
  ('Cc1cc(C)n(C(N)=S)n1.Cc1ccc(C(C)C)cc1.[Cl-].[Cl][Ru+] [2a]', 3.95),
  ('Cc1ccc(C(C)C)cc1.NC(=S)n1nc(-c2ccccc2)cc1O.[Cl-].[Cl][Ru+] [2c]', 4.53),
  ('CCc1cc(CC)n(C(N)=S)n1.Cc1ccc(C(C)C)cc1.F[P-](F)(F)(F)(F)F.[Cl-].[Ru+2] [3b]', 3.91);

Req: Quick check: pIC50 on HT29, item Cc1cc(C)n(C(N)=S)n1.Cc1ccc(C(C)C)cc1.F[P-](F)(F)(F)(F)F.[Cl-].[Ru+2] [3a] ?
Resp: 3.91

---

system: human microvascular endothelial cell line HMEC1; test: MTT cytotoxicity, normal endothelial cells HMEC1; type: cell-based; conditions: HMEC1 normal endothelial cells, 48 h incubation, read-out: Cytotoxic effect, IC50
property_measured: IC50 (µM)
State the answer as a number, implicitly in µM.

INSERT INTO results (compound, test_value) VALUES
  ('CCc1cc(CC)n(C(N)=S)n1.Cc1ccc(C(C)C)cc1.[Cl-].[Cl][Ru+] [2b]', 125),
  ('Cc1cc(O)n(C(N)=S)n1.Cc1ccc(C(C)C)cc1.[Cl-].[Cl][Ru+] [2d]', 163),
  ('Cc1cc(C)n(C(N)=S)n1.Cc1ccc(C(C)C)cc1.[Cl-].[Cl][Ru+] [2a]', 156),
  ('Cc1ccc(C(C)C)cc1.NC(=S)n1nc(-c2ccccc2)cc1O.[Cl-].[Cl][Ru+] [2c]', 192),
  ('Cc1ccc(C(C)C)cc1.F[P-](F)(F)(F)(F)F.NC(=S)n1nc(-c2ccccc2)cc1O.[Cl-].[Ru+2] [3c]', 164);

Moving on to the next compound.
Req: Fill in the blank: the reported IC50 of CCc1cc(CC)n(C(N)=S)n1.Cc1ccc(C(C)C)cc1.F[P-](F)(F)(F)(F)F.[Cl-].[Ru+2] [3b] is ____.
Resp: 135

---

Tested on: SW620
Assay: MTT cytotoxicity, SW620
Type: cell-based, human
Settings: 48 h incubation, read-out: Cytotoxic effect, IC50
Procedure: […] The cytotoxicity was tested by a standard MTT [3-(4,5-dimethylthiazol-2-yl)-2,5-diphenyltetrazolium bromide] […] The anticancer activity of the investigated compounds was evaluated in vitro on the basis of their ability to inhibit the proliferation of various cancer cells. […] Purple formazan absorbance was measured spectrophotometrically at 570 nm.
property_measured: IC50

Please review the entries below; each comes with its answer.
INSERT INTO results (compound, tested_system, property_measured, test_value) VALUES
  ('Cl.[Cl-].[Cl-].[Cl-].[Ru+3].c1c[nH]cn1.c1c[nH]cn1 [NAMI-A, reference compound]', 'SW620', 'IC50', '> 200 µM'),
  ('CCc1cc(CC)n(C(N)=S)n1.Cc1ccc(C(C)C)cc1.F[P-](F)(F)(F)(F)F.[Cl-].[Ru+2] [3b]', 'SW620', 'IC50', '78.8 µM'),
  ('Cc1cc(O)n(C(N)=S)n1.Cc1ccc(C(C)C)cc1.F[P-](F)(F)(F)(F)F.[Cl-].[Ru+2] [3d]', 'SW620', 'IC50', '> 200 µM');

Moving on to the next compound.
Req: Fill in the blank: the reported IC50 of Cc1cc(O)n(C(N)=S)n1.Cc1ccc(C(C)C)cc1.[Cl-].[Cl][Ru+] [2d] is ____.
Resp: > 200 µM
